Recorded values, source patent US5795907A.

Biological target: CCKA (Cavia porcellus)
Construct: The pancreatata were homogenised in 40 ml ice-cold HEPES buffer using a polytron; from tissue; host or cells: pancreas membranes of male Dunkin Hartley guinea-pigs
Sequence (Q63931 1-430): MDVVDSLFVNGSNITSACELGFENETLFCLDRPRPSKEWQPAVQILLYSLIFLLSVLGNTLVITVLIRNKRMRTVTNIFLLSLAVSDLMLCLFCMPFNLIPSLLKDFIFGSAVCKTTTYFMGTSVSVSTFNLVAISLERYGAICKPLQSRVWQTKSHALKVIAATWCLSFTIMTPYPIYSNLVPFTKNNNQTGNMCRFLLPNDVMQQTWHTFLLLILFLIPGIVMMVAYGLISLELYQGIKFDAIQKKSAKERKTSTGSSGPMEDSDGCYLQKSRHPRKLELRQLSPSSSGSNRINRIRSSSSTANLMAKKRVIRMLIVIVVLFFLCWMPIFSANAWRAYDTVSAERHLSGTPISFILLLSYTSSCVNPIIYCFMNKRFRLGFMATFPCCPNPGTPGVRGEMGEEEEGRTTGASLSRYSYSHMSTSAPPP
Experiment: CCKA radioligand binding assay in guinea-pig pancreas membranes ([125I]-CCK8(S))
Details: PD134,308 present, 150 minutes at 21±3°, read-out: CCKA pKi (converted)
Result Type: Ki (nM)

[a] O=C(NO)c1cc(NC(=O)[C@H](Cc2ccccc2)NC(=O)c2cc3cc[nH]c3cc2C(=O)NCC23CC4CC(CC(C4)C2)C3)cc(C(=O)NO)c1 [Example 34]
[b] O=C(NCC12CC3CC(CC(C3)C1)C2)c1cc2[nH]ccc2cc1C(=O)N[C@@H](Cc1ccccc1F)C(=O)Nc1cc(-c2nn[nH]n2)cc(-c2nn[nH]n2)c1 [Example 97]
[c] C[C@H](NC(=O)c1cc2[nH]ccc2cc1C(=O)NCC12CC3CC(CC(C3)C1)C2)C(=O)Nc1cc(C(=O)O)cc(C(=O)O)c1 [Example 48]
// query Sort low-to-high on Ki, please. Answer format: the labels, ordered as requested.
// result b, a, c

---

biological target: CCKB receptor (Mus musculus); construct: The cortex was dissected, weighed and homogenised in 40ml ice-cold buffer; tissue Charles River (supplier of the CD1 mice); host or cells: cerebral cortex membranes of male CD1 mice; experiment: CCKB receptor radioligand binding assay in mouse cortical membranes ([125I]-CCK8S); conditions: [125I]-CCK8S 200 pM, 150 min at 21±3°, read-out: CCKB pKi (converted)
Sequence (P56481 whole entry): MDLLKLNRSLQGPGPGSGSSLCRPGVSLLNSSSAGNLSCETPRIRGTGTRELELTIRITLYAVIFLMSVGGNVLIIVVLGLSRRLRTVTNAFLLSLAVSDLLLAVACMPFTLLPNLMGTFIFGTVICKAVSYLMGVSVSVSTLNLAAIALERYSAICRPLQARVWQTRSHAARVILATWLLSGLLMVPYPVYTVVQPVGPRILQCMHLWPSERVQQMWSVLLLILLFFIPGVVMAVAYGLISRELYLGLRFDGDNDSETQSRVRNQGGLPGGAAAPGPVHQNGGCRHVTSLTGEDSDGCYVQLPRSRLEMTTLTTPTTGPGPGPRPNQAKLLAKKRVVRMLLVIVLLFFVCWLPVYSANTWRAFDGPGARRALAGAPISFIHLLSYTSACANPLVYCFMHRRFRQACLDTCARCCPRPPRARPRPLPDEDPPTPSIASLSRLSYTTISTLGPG
Result Type: Ki (nM)

[A] O=C(O)c1cc(NC(=O)[C@H](Cc2ccc(F)cc2)NC(=O)c2cc3[nH]cnc3cc2C(=O)NCC23CC4CC(CC(C4)C2)C3)cc(C(=O)O)c1
[B] O=C(O)c1cccc(NC(=O)[C@H](Cc2ccccc2)NC(=O)c2cc3[nH]cnc3cc2C(=O)NCC23CC4CC(CC(C4)C2)C3)c1
// query Which record would sort first by descending Ki, A or B ? I would appreciate it if you answered with the label of your choice.
// result B
(B: 20 nM, A: 3.98 nM)

[A] O=C(O)c1cc2ccccc2cc1C(=O)NCC12CC3CC(CC(C3)C1)C2
[B] Cn1ccc2cc(C(=O)N[C@@H](Cc3ccccc3)C(=O)Nc3cc(C(=O)O)cc(C(=O)O)c3)c(C(=O)NCC34CC5CC(CC(C5)C3)C4)cc21
// query Could you point out whether the larger Ki belongs to A or to B ? Lab note: record the label of whichever item you select.
// result A
(A: 3160 nM, B: 0.398 nM)

[1] C[C@H](NC(=O)[C@H]1CCCN1C(=O)c1cc2ccccc2cc1C(=O)N(C)CC12CC3CC(CC(C3)C1)C2)C(=O)O
[2] C[C@@H](NC(=O)[C@H]1CCCN1C(=O)c1cc2ccccc2cc1C(=O)N(C)CC12CC3CC(CC(C3)C1)C2)C(=O)O
// query Looking at recorded values for Ki, does 1 or 2 come in lower? Record your answer as the label of the chosen record.
// result 2
